test: Half life in dog at […], iv; assay type: ADME, organism-based, Canis lupus familiaris; settings: in vivo; also: dose 0.25 mg/kg

[
  {
    "testSmiles": "COc1cc(-c2cc(OC)c(-n3c(=O)ccc4cc(S(=O)(=O)Nc5ncccn5)ccc43)cc2F)ccc1Cl",
    "half-life": "12 h"
  },
  {
    "testSmiles": "COc1cc(-c2cccc(OC(F)F)c2)c(F)cc1-n1c(=O)ccc2cc(S(=O)(=O)Nc3ccon3)ccc21",
    "half-life": "11 h"
  },
  {
    "testSmiles": "COc1cc(-c2ccc(F)c(C)c2)c(F)cc1-n1c(=O)ccc2cc(S(=O)(=O)Nc3ccon3)ccc21",
    "half-life": "14 h"
  },
  {
    "testSmiles": "COc1cc(-c2cccc(C(F)(F)F)c2)ccc1-n1c(=O)ccc2cc(S(=O)(=O)Nc3ncccn3)ccc21",
    "half-life": "34 h"
  }
]

----------
Listed next: entries and their corresponding half-life.
assay: Half life in rat at 0.5 mg/kg, iv; type: ADME, organism-based; settings: in vivo
measureName: half-life (h)

[
  {
    "testSmiles": "COc1cc(-c2cccc(C(F)(F)F)c2)ccc1-n1c(=O)ccc2cc(S(=O)(=O)Nc3ncccn3)ccc21",
    "unitsLabel": "h",
    "observedValue": 4.6
  },
  {
    "testSmiles": "COc1cc(-c2cc(OC)c(-n3c(=O)ccc4cc(S(=O)(=O)Nc5ncccn5)ccc43)cc2F)ccc1Cl",
    "unitsLabel": "h",
    "observedValue": 2.4
  },
  {
    "testSmiles": "COc1cc(-c2cccc(OC(F)F)c2)c(F)cc1-n1c(=O)ccc2cc(S(=O)(=O)Nc3ccon3)ccc21",
    "unitsLabel": "h",
    "observedValue": 1.8
  },
  {
    "testSmiles": "COc1cc(-c2ccc(F)c(C)c2)c(F)cc1-n1c(=O)ccc2cc(S(=O)(=O)Nc3ccon3)ccc21",
    "unitsLabel": "h",
    "observedValue": 1.9
  }
]

----------
experiment: Tmax in dog at 2 mg/kg, po; format: ADME, organism-based, Canis lupus familiaris; details: in vivo

[
  {
    "compound": "COc1cc(-c2cccc(F)c2)c(F)cc1-n1c(=O)ccc2cc(S(=O)(=O)Nc3ccon3)ccc21 (atropisomer P)",
    "Tmax, h": 4
  }
]

----------
assay: Oral bioavailability in dog at 2 mg/kg; assay type: ADME, organism-based, Canis lupus familiaris; conditions: in vivo
# bioavailability values compiled below

[
  {
    "compound": "COc1cc(-c2ccc(F)c(C)c2)c(F)cc1-n1c(=O)ccc2cc(S(=O)(=O)Nc3ccon3)ccc21",
    "bioavailability [%]": 116
  },
  {
    "compound": "COc1cc(-c2cccc(OC(F)F)c2)c(F)cc1-n1c(=O)ccc2cc(S(=O)(=O)Nc3ccon3)ccc21",
    "bioavailability [%]": 54
  },
  {
    "compound": "COc1cc(-c2cccc(F)c2)c(F)cc1-n1c(=O)ccc2cc(S(=O)(=O)Nc3ccon3)ccc21 (atropisomer P)",
    "bioavailability [%]": 62
  },
  {
    "compound": "COc1cc(-c2cccc(C(F)(F)F)c2)ccc1-n1c(=O)ccc2cc(S(=O)(=O)Nc3ncccn3)ccc21",
    "bioavailability [%]": 79
  }
]
